Overview of reported Cytotoxicity across a group of molecules:
# Protocol notes: Cytotoxicity against Chinese hamster ovary cells
# Format: cell-based, Cricetulus griseus
The answer is to be given in µM; state only the numeric part.

The molecule listed as `CN(C)CC1=C(CN(C)C)C2c3ccccc3C1c1ccccc12` has a reported Cytotoxicity of 920

Sure, the documented Cytotoxicity for CC1C2c3ccccc3C(c3ccccc32)C1C(=O)Nc1cccnc1 (configuration not stated) is 93

Further cases:
Note to self: Cytotoxicity recorded for CNCC1CC2c3ccccc3C1c1ccccc12 (configuration not stated) was 515

----------
Entries annotated with measured Cytotoxicity
# Protocol notes: Cytotoxicity against Chinese hamster ovary cells
# Format: cell-based, Cricetulus griseus

Entry CN(C)C(=O)C1C2c3ccccc3C(c3ccccc32)C1C(=O)N(C)C (stereo in doubt; 17) — recorded Cytotoxicity = 1558 µM

----------
# System: Plasmodium falciparum
# Protocol notes: In vitro inhibitory activity against multidrug-resistant Plasmodium falciparum W2 Indochina
# Assay type: functional, organism-based
# Condition label: Plasmodium falciparum
In plain terms, low IC50, meaning strictly below 40 µM, gives label 1, and everything else gives label 0.

*Q* # check: IC50 < 40 µM for CN(C)CC1C2c3ccccc3C(c3ccccc32)C1COC(=O)N(C)C (stereo unspecified)
*A* label 1

*Q* Dear reviewer, please state whether CN(C)CC1C2c3ccccc3C(c3ccccc32)C1CO (stereo unspecified) has IC50 strictly beneath 40 µM.
*A* label 1

*Q* Below 40 µM on IC50? Entry CC1C2c3ccccc3C(c3ccccc32)C1C(=O)Nc1ccccn1 (stereo unspecified)
*A* label 0

New cases:
*Q* Could you please tell me whether IC50 recorded for CN(C)C=NC(=O)C1C2c3ccccc3C(c3ccccc32)C1C(=O)N=CN(C)C (stereo unspecified) is less than 40 µM?
*A* label 1

*Q* Hello, I'm reviewing records and need to know if IC50 of CNC1(C)C2CCC(C2)C1(C)C (stereo unspecified) is below 40 µM. Could you check?
*A* label 0

*Q* Would you kindly verify if IC50 of `CN(C)CC1=CC2c3ccccc3C1c1ccccc12` is strictly less than 40 µM?
*A* label 1

----------
# Protocol notes: Cytotoxicity against Chinese hamster ovary cells
# Format: cell-based, Cricetulus griseus
Binarize Cytotoxicity at 700 µM; below is label 1, at or above is label 0.

*Q* Does the reported Cytotoxicity of the following compound sit strictly below 700 µM? CC1C2c3ccccc3C(c3ccccc32)C1C(=O)Nc1ccccn1 (stereo not given)
*A* label 1

*Q* Dear colleague, could you confirm whether Cytotoxicity of c1ccc2c(c1)C1c3ccccc3C2C2CNCC12 (stereo not given) falls below 700 µM? Thanks.
*A* label 0

*Q* Is it true that Cytotoxicity reported for NCC1C2c3ccccc3C(c3ccccc32)C1CN (stereo not given) is less than 700 µM?
*A* label 1

Next:
*Q* Report whether reported Cytotoxicity is lower than 700 µM (strictly) for CN(C)C1C2c3ccccc3C(c3ccccc32)C1C(=O)O (stereo not given)
*A* label 0

*Q* hey, is Cytotoxicity for CCOC(=O)C1C2c3ccccc3C(c3ccccc32)C1N(C)C (stereo not given) lower than 700 µM or not?
*A* label 0

*Q* Does the reported Cytotoxicity of the following compound sit strictly below 700 µM? CC1C2c3ccccc3C(c3ccccc32)C1C(N)=O (stereo not given)
*A* label 0

*Q* In plain terms, does CN(C)C(=O)C1C2c3ccccc3C(c3ccccc32)C1C(=O)N(C)C (stereo in doubt; 4) come in under 700 µM for Cytotoxicity?
*A* label 0

----------
# Protocol notes: Cytotoxicity against Chinese hamster ovary cells
# Assay type: cell-based, Cricetulus griseus
Value type: Cytotoxicity (µM)
Could you give me the number in µM? Just the number is fine.

Guide cases for Cytotoxicity, answers given:
Looking up CC1C2c3ccccc3C(c3ccccc32)C1CN(C)C (stereo not drawn) , I found its Cytotoxicity recorded as 711

The value of Cytotoxicity measured for the compound CN(C)CCNC1CC2c3ccccc3C1c1ccccc12 (stereo not drawn) turned out to be 695

Let's switch to this compound now.
Form field Cytotoxicity, entry CC(CN1c2ccccc2Sc2ccccc21)N(C)C (stereo not drawn) : 702
